Measured GFP response relative to DMSO, listed per entry for reference.
# Experimental Protocol: LAP4-GFP expression modulators in yeast, confirmation, cell-based, cherry picks, flow cytometry, mother/daughter gates (AID 2271);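 also: ratio of sample to DMSO plate mean so 100% equals DMSO level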
# Condition Summary: S. cerevisiae LAP4-GFP strain, 3 h, measured here: daughter cell gate response, at 10 µM, stronger effect = higher value, 100 means same as DMSO control
Measured Metric: GFP response relative to DMSO (%)

[
  {
    "Compound": "Cc1ccc(-n2ncc(C#N)c2/N=C/N(C)C)cc1",
    "Assay Value": 101
  },
  {
    "Compound": "CC(C)c1nnc(NC(=O)c2nc(S(=O)(=O)Cc3ccccc3)ncc2Cl)s1",
    "Assay Value": 101
  },
  {
    "Compound": "COc1ccc(CN2CCN(c3ncccn3)CC2)c(C)c1C",
    "Assay Value": 101
  },
  {
    "Compound": "O=C(O)COc1c(-c2ccc(Cl)cc2)oc2ccccc2c1=O",
    "Assay Value": 99.2
  },
  {
    "Compound": "CC(=O)NN1C(=O)/C(=C/c2ccc(Br)o2)SC1=S",
    "Assay Value": 122
  },
  {
    "Compound": "O=[N+]([O-])c1ccccc1OCCOc1ccccc1[N+](=O)[O-]",
    "Assay Value": 101
  },
  {
    "Compound": "Cc1ccc(NC(=O)c2nc(S(=O)(=O)Cc3ccccc3C)ncc2Cl)cc1C",
    "Assay Value": 107
  },
  {
    "Compound": "Cn1c(=O)[nH]c(=O)c2c1nc(N1CCCCC1)n2CCOc1ccccc1",
    "Assay Value": 100
  },
  {
    "Compound": "CCN(CC)c1ccc(/C=C/c2cccc[n+]2C)c(OC)c1",
    "Assay Value": 113
  },
  {
    "Compound": "COc1ccc(OCC(O)CNC(=O)/C=C/c2cccc([N+](=O)[O-])c2)cc1 (centres undefined)",
    "Assay Value": 102
  },
  {
    "Compound": "O=[N+]([O-])c1ccc(SCCc2ccncc2)cc1",
    "Assay Value": 99.2
  },
  {
    "Compound": "Cc1c(Br)cc(C(=O)O)c(C)c1C",
    "Assay Value": 101
  },
  {
    "Compound": "Oc1ccc(COCc2ccccc2)c2cccnc12",
    "Assay Value": 138
  },
  {
    "Compound": "CN1CCN(/N=C/c2c3ccccc3c(Cl)c3ccccc23)CC1",
    "Assay Value": 101
  },
  {
    "Compound": "O=C(/C=C/c1ccc(-c2ccccc2[N+](=O)[O-])o1)c1ccc(Br)cc1",
    "Assay Value": 118
  },
  {
    "Compound": "O=C(/C=C/c1ccccc1)c1ccccc1O",
    "Assay Value": 130
  },
  {
    "Compound": "NNC(=O)c1ccc(COc2ccc3ccccc3c2)cc1",
    "Assay Value": 101
  },
  {
    "Compound": "O=[N+]([O-])/C=C/c1cn(Cc2ccc(F)cc2)c2ccccc12",
    "Assay Value": 110
  },
  {
    "Compound": "CC(C)c1ccc(C(=O)N/N=C/c2cccc(Cl)c2Cl)cc1",
    "Assay Value": 110
  },
  {
    "Compound": "Cc1ccc(C2CC(c3cccs3)=NN2S(=O)(=O)c2ccc(C)cc2)cc1 (centres undefined)",
    "Assay Value": 97.5
  },
  {
    "Compound": "Cc1ccc(C)c(N2CCN(C(=O)c3ccccc3Br)CC2)c1",
    "Assay Value": 101
  },
  {
    "Compound": "COC(=O)Cn1nc(-c2ccccc2)c2cc(Cl)ccc21",
    "Assay Value": 104
  },
  {
    "Compound": "O=[N+]([O-])c1ccc(N2CCN(CCO)CC2)cc1Sc1ccccn1",
    "Assay Value": 96
  },
  {
    "Compound": "O=C(c1ccc2c(c1)OCO2)N1CCN(c2ccccc2)CC1",
    "Assay Value": 104
  }
]
